# assay text: chemical genetic growth profiling, strain panel (AID 1159580);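 further: tested at 20 µM; growth read once vehicle control cultures reached saturation at 30 °C; lower values mean less growth of the strain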
# assay setup: S. cerevisiae deletion strains, growth OD, locus YLR039C, strain RIC1
Out of some 5,500 compounds screened, about 2,000 (36%) were called active. Another 18% or so got no clear call; they are omitted. No stated cut-off is given here; in the data, active means normalized growth mostly below about 0.91 (no sharp cut-off); inconclusive means no clear call, values can overlap the other calls; inactive means mostly above about 0.92. The list shows a part of the results.
Respond only with the outcome that fits, drawn from active, inactive

Challenge: Tell me the assay call for Cn1c(=O)c2c(ncn2CCO)n(C)c1=O please.
Response given: inactive

Challenge: Tell me the assay call for COC(=O)c1cc(OC)c(OC)cc1NC(=O)Nc1cc(Cl)cc(Cl)c1 please.
Response given: inactive

Challenge: Tell me the assay call for COc1ccc(/C=C/c2cc(O)cc(O[C@@H]3O[C@H](CO)[C@@H](O)[C@H](O)[C@H]3O)c2)cc1 please.
Response given: inactive

Challenge: Tell me the assay call for CC(=O)NS(=O)(=O)c1ccc(N)cc1 please.
Response given: inactive

Challenge: Tell me the assay call for CC(C)C1CCC(C(=O)N[C@@H](Cc2ccccc2)C(=O)O)CC1 (some centres undefined) please.
Response given: inactive

Challenge: Tell me the assay call for C[C@]12CC[C@@H](O)C[C@H]1CCc1ccccc12 please.
Response given: inactive

Challenge: Tell me the assay call for CC[C@H]1OC(=O)[C@H](C)[C@@H](O[C@H]2C[C@@](C)(OC)[C@@H](O)[C@H](C)O2)[C@H](C)[C@@H](O[C@@H]2O[C@H](C)C[C@H](N(C)C)[C@H]2O)[C@](C)(O)C[C@@H](C)/C(=N/OCOCCOC)[C@H](C)[C@@H](O)[C@]1(C)O please.
Response given: inactive

Challenge: Tell me the assay call for O=C(O)c1cccc([N+](=O)[O-])c1C(=O)Nc1ccc(F)cc1 please.
Response given: active

Challenge: Tell me the assay call for O=C1C=C(O)c2ccccc2C1=O please.
Response given: inactive

Challenge: Tell me the assay call for CNC(C)(C)Cc1ccccc1 please.
Response given: inactive

Challenge: Tell me the assay call for CC(C)OC(=O)Nc1cccc(Cl)c1 please.
Response given: inactive

Challenge: Tell me the assay call for CC(NC(C)(C)C)C(=O)c1cccc(Cl)c1 (centres undefined) please.
Response given: inactive

Challenge: Tell me the assay call for C=C[C@H]1CN2CC[C@H]1C[C@H]2[C@H](O)c1ccnc2ccccc12 please.
Response given: inactive

Challenge: Tell me the assay call for O=C(/C=C/c1ccccc1)c1ccc(O[C@@H]2O[C@H](CO)[C@@H](O)[C@H](O)[C@H]2O)cc1O please.
Response given: inactive

Challenge: Tell me the assay call for COc1cc(O)c2c(c1)C(=O)c1cc(C)cc(O)c1C2=O please.
Response given: inactive

Challenge: Tell me the assay call for O=C1c2ccccc2C(=O)c2ccccc21 please.
Response given: inactive

Challenge: Tell me the assay call for OC[C@H]1O[C@@H](Oc2ccc(O)cc2)[C@H](O)[C@@H](O)[C@@H]1O please.
Response given: inactive

Challenge: Tell me the assay call for Nc1ccc(Sc2cc(Cl)ccc2Cl)nc1 please.
Response given: active

Challenge: Tell me the assay call for C[C@]12[C@H](O)CC3C(CC[C@@H]4C[C@@H](O)CC[C@]34C)[C@@]1(O)CC[C@@H]2C1=CC(=O)OC1 (some centres undefined) please.
Response given: inactive

Challenge: Tell me the assay call for Cn1c(=O)c2c(ncn2CCCl)n(C)c1=O please.
Response given: inactive

Challenge: Tell me the assay call for CC(C)(C)S(=O)(=O)c1cnc(N)nc1N please.
Response given: inactive

Challenge: Tell me the assay call for CNC(=O)Oc1ccccc1OC(C)C please.
Response given: inactive

Challenge: Tell me the assay call for CC(C)[C@@H]1CC[C@@H](C)C[C@H]1OC(=O)c1ccccc1 please.
Response given: inactive

Challenge: Tell me the assay call for CON please.
Response given: inactive

// provenance: PubChem BioAssay AID1159580
